We begin with a simple list: items and their reported pIC50.
- Tested on: CD69 expression on CD19+ B cells in human whole blood
- testMethodNotes: In Vitro whole blood CD69 Assay
- Format: cell-based
- conditionNotes: B-cell; human heparinized whole blood, anti-human IgD stimulation overnight, CD19+ B cells, flow cytometry; read-out: In Vitro HWB CD69 Assay IC50 Score
pIC50: −log10 of the molar value. Where a name gives a salt, the structure may show the parent alone.

Reference set, count: 3
compound | pIC50
Cn1cc(-c2cn3nccc3c(N3CCC(F)(CNC(=O)c4noc(C5(C)CC5)n4)CC3)n2)cn1 [Example 161, trifluoroacetate] | 5.00 to 6.00
Cc1cc(-c2cc(-c3cnn(C)c3)cn3nccc23)ccc1CNC(=O)c1cn(C(C)(C)C)nn1 | > 6.00
Cn1cc(-c2cn3nccc3c(-c3ccc4c(c3)CN(C3COC3)CC[C@H]4NC(=O)c3cn(C(C)(C)C)nn3)n2)cn1 | > 6.00

Could you now look at the following compound, please?
The compound "Cn1cc(-c2cn3nccc3c(-c3ccc(CNC(=O)c4nnn(C(C)(C)C)n4)c(F)c3F)n2)cn1" showed pIC50 equal to > 6.00

---

- Tested on: CD69 expression on CD19+ B cells in human whole blood
- testMethodNotes: In Vitro whole blood CD69 Assay
- Assay type: cell-based
- conditionNotes: B-cell; human heparinized whole blood, anti-human IgD stimulation overnight, CD19+ B cells, flow cytometry; read-out: In Vitro HWB CD69 Assay IC50 Score
measuredAttribute: IC50

Record Cn1cc(-c2cn3nccc3c(N3CCC(F)(CNC(=O)c4noc(C(C)(C)C)n4)CC3)n2)cn1 [Example 160] . Reported IC50: 1 to 10 µM

---

- Tested on: CD69 expression on CD19+ B cells in human whole blood
- testMethodNotes: In Vitro whole blood CD69 Assay
- Assay type: cell-based
- conditionNotes: B-cell; human heparinized whole blood, anti-human IgD stimulation overnight, CD19+ B cells, flow cytometry; read-out: In Vitro HWB CD69 Assay IC50 Score
measuredAttribute: IC50

cpdSmiles | measuredTarget | IC50
Cn1cc(-c2cn3nccc3c(-c3cc(F)c(CNC(=O)c4nnn(C(C)(C)C)n4)cc3F)n2)cn1 | CD69 expression on CD19+ B cells in human whole blood | < 1000 nM
Cn1cc(-c2cn3nccc3c(-c3cc(F)c(CNC(=O)c4cnn(C(C)(C)C)n4)cc3F)n2)cn1 | CD69 expression on CD19+ B cells in human whole blood | 1000 to 10000 nM
Cn1cc(-c2cc(-c3ccc(CNC(=O)c4nc(C(C)(C)CF)no4)c(F)c3)c3ccnn3c2)cn1 | CD69 expression on CD19+ B cells in human whole blood | < 1000 nM
Cn1cc(-c2cn3nccc3c(-c3ccc(CNC(=O)c4noc(C(C)(C)C)n4)cc3F)n2)cn1 | CD69 expression on CD19+ B cells in human whole blood | < 1000 nM
Cn1cc(-c2cn3nccc3c(-c3ccc(CNC(=O)c4ccn(C(C)(C)C)n4)c(F)c3)n2)cn1 | CD69 expression on CD19+ B cells in human whole blood | 1000 to 10000 nM

The observed IC50 for "Cn1cc(-c2cc3nccn3c(-c3ccc(CNC(=O)c4nnn(C(C)(C)C)n4)cc3)n2)cn1" when tested with CD69 expression on CD19+ B cells in human whole blood stands at < 1000 nM

Item "Cn1cc(-c2cn3nccc3c(-c3ccc(CNC(=O)c4noc(C5(CF)CC5)n4)cc3)n2)cn1" ; assay system CD69 expression on CD19+ B cells in human whole blood; IC50 reported as < 1000 nM

---

Each entry below lists one item and its recorded IC50 value.
- measuredTarget: BTK (Homo sapiens)
- Sequence (Q06187 whole entry): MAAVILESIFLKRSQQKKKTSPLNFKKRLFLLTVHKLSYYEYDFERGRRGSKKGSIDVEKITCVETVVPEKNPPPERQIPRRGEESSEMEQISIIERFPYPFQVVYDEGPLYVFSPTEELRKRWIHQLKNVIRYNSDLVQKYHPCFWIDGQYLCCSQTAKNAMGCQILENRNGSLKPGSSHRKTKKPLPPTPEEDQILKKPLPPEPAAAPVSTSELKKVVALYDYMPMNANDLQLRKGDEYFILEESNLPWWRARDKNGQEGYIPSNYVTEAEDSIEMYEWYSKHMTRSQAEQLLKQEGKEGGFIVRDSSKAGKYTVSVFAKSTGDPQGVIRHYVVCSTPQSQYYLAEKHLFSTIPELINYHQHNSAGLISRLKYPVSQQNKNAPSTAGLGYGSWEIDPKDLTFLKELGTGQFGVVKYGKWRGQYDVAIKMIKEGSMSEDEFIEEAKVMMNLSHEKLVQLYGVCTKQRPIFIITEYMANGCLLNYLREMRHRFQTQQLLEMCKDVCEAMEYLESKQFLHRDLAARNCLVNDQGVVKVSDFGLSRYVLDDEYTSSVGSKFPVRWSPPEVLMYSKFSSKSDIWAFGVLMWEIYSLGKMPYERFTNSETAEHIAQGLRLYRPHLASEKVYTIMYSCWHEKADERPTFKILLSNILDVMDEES

Please review the following examples before continuing.
compound | result
Cn1cc(-c2cn3nccc3c(N3CC4CCC(C3)C4CNC(=O)c3noc(C(C)(C)C)n3)n2)cn1 (stereo not shown) [Example 165] | 10 to 1000 nM
Cn1cc(-c2cc(-c3ccc(CNC(=O)c4cn(C(C)(C)C)nn4)cc3)n3cnnc3c2)cn1 [Example 75] | 10 to 1000 nM
Cn1cc(-c2cc(-c3ccc(CNC(=O)c4noc(C(C)(C)C)n4)c(F)c3)c3ccnn3c2)cn1 [Example 68] | < 1 nM
CC1CN(c2nc(-c3cnn(C)c3)cn3nccc23)CCC1CNC(=O)c1noc(C(C)(C)C)n1 (stereo not shown) [Example 144] | 1 to 10 nM

For Cn1cc(-c2cn3nccc3c(-c3ccc(CNC(=O)c4nc(C(C)(C)C)no4)c(F)c3F)n2)cn1 [Example 89] on BTK (Homo sapiens), measured IC50 was < 1 nM

Param item: COCCOc1cn2nccc2c(-c2ccc(CNC(=O)c3noc(C(C)(C)C)n3)c(C)c2)n1 [Example 132] ; param system: BTK (Homo sapiens); output IC50: 1 to 10 nM

Observed IC50, BTK (Homo sapiens), Cn1cc(-c2cc3nccn3c(-c3ccc(CNC(=O)c4nc(C(C)(C)C)no4)cc3)n2)cn1 [Example 64] : < 1 nM

---

Reported IC50 for target or system BTK (Homo sapiens, UniProt Q06187), by entry.
Counter-ions that a name gives are not always drawn.

Answered examples (5):
compound | measuredAttribute | result
Cn1cc(-c2cn3nccc3c(N3CCC4(CC(NC(=O)c5noc(C(C)(C)C)n5)C4)C3)n2)cn1 (single isomer, unassigned) [Example 53] | IC50 | 10 to 1000 nM
Cn1cc(-c2cn3nccc3c(-c3ccc4c(c3)CN(C3COC3)CC[C@H]4NC(=O)c3cn(C(C)(C)C)nn3)n2)cn1 | IC50 | < 1 nM
Cc1cc(-c2nc(N3CCN(C)CC3)cn3nccc23)ccc1CNC(=O)c1cn(C(C)(C)C)nn1 [Example 121, trifluoroacetate] | IC50 | 10 to 1000 nM
Cn1cc(-c2cn3nccc3c(-c3ccc(CNC(=O)c4ccn(C(C)(C)C)n4)cc3F)n2)cn1 | IC50 | 10 to 1000 nM
CC(C)(C)c1nnc(C(=O)NCc2ccc(-c3nc(N4CCOCC4)cn4nccc34)cc2)o1 | IC50 | 1000 to 10000 nM

The value of IC50 recorded for "Cn1cc(-c2cc(-c3ccc(CNC(=O)c4cn(C(C)(C)C)nn4)c(F)c3)c3ccnn3c2)cn1" when tested on BTK (Homo sapiens, UniProt Q06187) reads < 1 nM

For "Cn1cc(-c2cc(-c3ccc(CNC(=O)c4noc(C5(C)CC5)n4)cc3)n3cnnc3c2)cn1" on BTK (Homo sapiens, UniProt Q06187), measured IC50 was 10 to 1000 nM

---

Where a name gives a salt, the structure may show the parent alone.
Reported IC50 for target or system BTK (Homo sapiens), by entry.

Please review the following examples before continuing.
molecule | result
Cn1cc(-c2cc(-c3ccc(CNC(=O)c4noc(C5(C)CC5)n4)c(F)c3)c3ccnn3c2)cn1 | < 1 nM
Cn1cc(-c2cn3ncnc3c(N3CCC(CNC(=O)c4noc(C(C)(C)C)n4)CC3)n2)cn1 | 1 to 10 nM
Cn1cc(-c2cn3nccc3c(N3CC[C@H](CNC(=O)c4noc(C(C)(C)C)n4)[C@H](F)C3)n2)cn1 (single isomer, unassigned) | 1 to 10 nM
Cc1cc(-c2nc(N3CCN(C)CC3)cn3nccc23)ccc1CNC(=O)c1cnn(C(C)(C)C)n1 [Example 124, trifluoroacetate] | 10 to 1000 nM
Cc1cc(-c2nc(-c3cnn(C)c3)cn3nccc23)ccc1CN1CCN(CC(C)C)CC1=O | 1 to 10 nM
Cn1cc(-c2cn3nccc3c(-c3cc(F)c(CNC(=O)c4ccn(C(C)(C)C)n4)cc3F)n2)cn1 | 10 to 1000 nM
Cn1cc(-c2cn3nccc3c(N3CCC(C)(CNC(=O)c4nnn(C(C)(C)C)n4)C3)n2)cn1 (stereo not drawn) | 10 to 1000 nM
CC(C)(C)c1nc(C(=O)NCc2ccc(-c3nc(N4CCOCC4)cn4nccc34)cc2F)co1 | 10 to 1000 nM
Cn1cc(-c2cn3nccc3c(-c3ccc(CNC(=O)c4ccn(C(C)(C)C)n4)c(F)c3F)n2)cn1 | 1 to 10 nM
Cn1cc(-c2cn3nccc3c(N3CCC(C)(CNC(=O)c4cn(C(C)(C)C)nn4)CC3)n2)cn1 | 10 to 1000 nM

Entry "Cn1cc(-c2cn3nccc3c(-c3ccc(CNC(=O)c4cn(C(C)(C)C)nn4)c(F)c3)n2)cn1" , IC50 reported as < 1 nM

The recorded IC50 for entry "Cn1cc(-c2cn3nccc3c(N3CCC(C)(CNC(=O)c4noc(C5(C)CC5)n4)CC3)n2)cn1" equals 10 to 1000 nM

---

- Test system: CD69 expression on CD19+ B cells in human whole blood
- testMethodNotes: In Vitro whole blood CD69 Assay
- Assay type: cell-based
- conditionNotes: B-cell; human heparinized whole blood, anti-human IgD stimulation overnight, CD19+ B cells, flow cytometry; read-out: In Vitro HWB CD69 Assay IC50 Score
pIC50: −log10 of the molar value.
measuredAttribute: pIC50

pIC50 recorded for this compound, C[C@@H]1CN(c2nc(-c3cnn(C)c3)cn3nccc23)CC[C@@H]1CNC(=O)c1noc(C2(C)CC2)n1 (single isomer, unassigned) , is 5.00 to 6.00

Item: "CC(C)(C)c1nc(C(=O)NCc2ccc(-c3nccn4nccc34)cc2Cl)no1" | pIC50: 5.00 to 6.00

Note to self: pIC50 recorded for "Cn1cc(-c2cn3nccc3c(-c3ccc(CNC(=O)c4nnn(C(C)(C)C)n4)nc3)n2)cn1" was 5.00 to 6.00

Note to self: pIC50 recorded for Cn1cc(-c2cn3nccc3c(N3CCC(CNC(=O)c4noc(C(C)(C)C)n4)C(F)(F)C3)n2)cn1 (stereo not shown) was > 6.00

The measured values listed here are drawn from patent US20250034150A1.
